# credit: paper PMC8881077

- Test Target: ratBuChE (Rattus norvegicus, UniProt Q9JKC1)
- Construct: BuChE from rat serum or human serum (Sigma Co.); from tissue; host or cells: rat serum
- Sequence (Q9JKC1 24-597): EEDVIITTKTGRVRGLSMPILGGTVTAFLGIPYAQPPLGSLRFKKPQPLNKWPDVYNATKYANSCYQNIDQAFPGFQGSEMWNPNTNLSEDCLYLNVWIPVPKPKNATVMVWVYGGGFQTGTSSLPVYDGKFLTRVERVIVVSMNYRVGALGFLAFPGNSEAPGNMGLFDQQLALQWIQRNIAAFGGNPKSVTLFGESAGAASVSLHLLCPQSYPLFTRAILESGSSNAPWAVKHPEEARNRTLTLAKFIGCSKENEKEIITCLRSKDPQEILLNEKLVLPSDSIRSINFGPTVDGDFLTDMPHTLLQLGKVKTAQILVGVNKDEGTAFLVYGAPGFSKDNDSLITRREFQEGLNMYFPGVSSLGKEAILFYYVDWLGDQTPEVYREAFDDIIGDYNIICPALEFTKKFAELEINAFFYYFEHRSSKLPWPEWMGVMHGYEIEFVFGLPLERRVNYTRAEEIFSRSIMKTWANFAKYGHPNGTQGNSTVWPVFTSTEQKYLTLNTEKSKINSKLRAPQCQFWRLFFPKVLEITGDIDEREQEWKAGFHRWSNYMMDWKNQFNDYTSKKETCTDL
- Run Description: ratBuChE inhibition, modified Ellman's method
- Format: biochemical
Known pIC50 of a selection of compounds
The quantity pIC50 is defined as the negative base-10 logarithm of the molar concentration.

Worked set:
- Compound: "CCN(CCCCOc1ccc(C2CC(=O)c3c(O)cc(OCCCCN(CC)Cc4ccccc4)cc3O2)cc1)Cc1ccccc1 (stereo not shown) [Compound 7g]"
  Test Target: "ratBuChE (Rattus norvegicus, UniProt Q9JKC1)"
  pIC50: 4.80
- Compound: "O=C1CC(c2ccc(OCCCCN3CCN(Cc4ccccc4)CC3)cc2)Oc2cc(OCCCCN3CCN(Cc4ccccc4)CC3)cc(O)c21 (stereo not shown) [Compound 7i]"
  Test Target: "ratBuChE (Rattus norvegicus, UniProt Q9JKC1)"
  pIC50: 4.91
- Compound: "CCN(CCCCCCCCCCOc1cc(O)c2c(c1)OC(c1ccc(O)cc1)CC2=O)Cc1ccccc1 (stereo not shown) [Compound 5i]"
  Test Target: "ratBuChE (Rattus norvegicus, UniProt Q9JKC1)"
  pIC50: 4.83

Next up:
In: What pIC50 value was documented for this compound, CC1CC(C)CN(CCCOc2ccc(-c3cc(=O)c4c(O)cc(OCCCN5CC(C)CC(C)C5)cc4o3)cc2)C1 (stereo not shown) [Compound 10f] ?
Out: 4.78

* * *

- Test Target: ratBuChE (Rattus norvegicus)
- Construct: BuChE from rat serum or human serum (Sigma Co.); from tissue; host or cells: rat serum
- Run Description: ratBuChE inhibition, modified Ellman's method
- Format: biochemical
Property Label: IC50 (µM)
Dear colleague, please return just the value in µM, with no unit written.

Worked set:
- Compound: "O=c1cc(-c2ccc(OCCCN3CCC(Cc4ccccc4)CC3)cc2)oc2cc(OCCCN3CCC(Cc4ccccc4)CC3)cc(O)c12 [Compound 10c]"
  IC50 [µM]: 13.6
- Compound: "O=c1cc(-c2ccc(OCCCN3CCC(CCCc4ccccc4)CC3)cc2)oc2cc(OCCCN3CCC(CCCc4ccccc4)CC3)cc(O)c12 [Compound 10e]"
  IC50 [µM]: 13.8
- Compound: "CCN(CCCCOc1cc(O)c2c(c1)OC(c1ccc(O)cc1)CC2=O)Cc1ccccc1OC (stereo not shown)"
  IC50 [µM]: 18.1
- Compound: "CCN(CCCCCCCCCCCCOc1cc(O)c2c(c1)OC(c1ccc(O)cc1)CC2=O)Cc1ccccc1 (stereo not shown)"
  IC50 [µM]: 15.9
- Compound: "CCN(CCCOc1ccc(-c2cc(=O)c3c(O)cc(OCCCN(CC)Cc4ccccc4)cc3o2)cc1)Cc1ccccc1 [Compound 10b]"
  IC50 [µM]: 18.6
- Compound: "CCN(CCCCCCOc1cc(O)c2c(c1)OC(c1ccc(O)cc1)CC2=O)Cc1ccccc1 (stereo not shown)"
  IC50 [µM]: 15.5

In: Can you look up IC50 on ratBuChE (Rattus norvegicus) for O=c1cc(-c2ccc(OCCCCCCN3CCC(CCCc4ccccc4)CC3)cc2)oc2cc(OCCCCCCN3CCC(CCCc4ccccc4)CC3)cc(O)c12 [Compound 10u] ?
Out: 17.2

In: Could you do the same for O=C1CC(c2ccc(O)cc2)Oc2cc(OCCCCN3CCN(Cc4ccccc4)CC3)cc(O)c21 (stereo not shown) , please?
Out: 13.2
